# assayExplanation: physchem
# Format: physicochemical
# measurementContext: Table 13, compounds of formula (7); method [a]
Some molecules, each annotated with its measured chromatographic logP.
Answer field: number only, no words.

molecule	chromatographic logP
Cc1ccc(CC2CON=C(c3cc(C(F)(F)F)ncc3Br)N2)c(C)c1 (racemic)	2.43

# input for lookup
**Query** Please look up its chromatographic logP: Cc1ccc(CC2CON=C(c3ccncc3Br)N2)cc1 (racemic)
**Result** 2.31

----------
# assayExplanation: physchem
# Type: physicochemical
# Method: Measurement of Log P values as provided herein was performed according to EEC directive 79/831 Annex V.A8 by HPLC (High Performance Liquid Chromatography) on reversed phase columns with the following methods: • ^[a] If more than one Log P value is available within the same method, all the values are given and separated by “+”. Lambda-max-values were determined using UV-spectra from 200 nm to 400 nm and the peak values of the chromatographic signals
Some molecules, each annotated with its measured LogP.

Illustrative cases are given below, each with its answer.
molecule	resultValue
O=C(NC(CON1C(=O)c2ccccc2C1=O)Cc1ccc(Cl)cc1Cl)c1cc(Cl)ncc1Oc1cccc(C2CC2)c1F (stereo not shown)	5.54^[a]
C=CC(C)Nc1c(Cl)ncc(Oc2cccc(C(F)(F)F)c2)c1C1=NOCC(Cc2ccc(C)cc2C)N1 (stereo not shown)	5.19^[a]
C#Cc1ccc(CC2CON=C(c3cc(Cl)ncc3Oc3cccc(C(F)(F)F)c3)N2)c(C)c1 (stereo not shown)	4.08^[a]

**Query** Please look up its LogP: NOCC(Cc1ccc(Br)cc1Cl)NC(=O)c1cc(Cl)ncc1Oc1cccc(C2CC2)c1 (stereo not shown)
**Result** 4.15^[a]

**Query** Query Cc1ccc(CC2CON=C(c3cc(Cl)ncc3Oc3cccc(-c4ccccn4)c3)N2)c(C)c1 (racemic) next
**Result** 3.87^[a]

**Query** Query FC(F)(F)c1cccc(Oc2cnc(Cl)cc2C2=NOCC(c3ccc4c(c3)OCCO4)N2)c1 (racemic) next
**Result** 3.48^[a]

**Query** Query Cc1ccc(CC2CON=C(c3cc(Cl)ncc3Oc3cccc(Cl)c3)N2)c(C)c1 (single isomer, unassigned) [Compound I-012] next
**Result** 4.53^[a]

----------
# assayExplanation: physchem
# Format: physicochemical
measuredQuantity: LogP

Illustrative cases are given below, each with its answer.
compound	measuredQuantity	resultValue
Cc1ccc(CC2CON=C(c3cc(Cl)ncc3Oc3cccc(C4CC4)c3)N2)c(C)c1 (single isomer, unassigned) [Compound I-020]	LogP	4.89^[a]
Cc1ccc(CC2CON=C(c3cc(C)ncc3Oc3cccc(C4CC4)c3F)N2)c(C)c1 (racemic)	LogP	4.03^[a]
Cc1cccc(Oc2cnc(C)cc2C2=NOCC(Cc3ccc(C)cc3C)N2)c1 (racemic)	LogP	3.61^[a]
Cc1cccc(CC2CON=C(c3cc(Cl)ncc3Oc3cccc(Cl)c3F)N2)c1Cl (stereo not shown)	LogP	4.62^[a]
COc1cccc(Oc2cnc(Cl)cc2C2=NOCC(Cc3ccc(C)cc3C)N2)c1F (stereo not shown)	LogP	4.06^[a]

**Query** Please look up its LogP: Cc1ccc(CC2CON=C(c3cc(C)ncc3Oc3cccc(C4CC4)c3)N2)c(C)c1 (racemic)
**Result** 3.94^[a]

**Query** Query "COc1cccc(Oc2cnc(Cl)cc2C(=O)O)c1" next
**Result** 2.34^[a]

**Query** Query Cc1cccc(Oc2cnc(Cl)cc2C(=O)NC(CON2C(=O)c3ccccc3C2=O)Cc2ccc(C)cc2C)c1 (stereo not shown) next
**Result** 5.16^[a]

**Query** Query Cc1ccc(CC(CON)NC(=O)c2cc(Cl)ncc2Br)c(C)c1 (stereo not shown) next
**Result** 2.20^[a]

**Query** Query FC(F)(F)c1cccc(Oc2cnc(Cl)cc2C2=NOCC(c3ccc4c(c3)CCC4)N2)c1 (racemic) next
**Result** 4.41^[a]
